# subject_of_test: human NK1 receptor (Homo sapiens)
# Construct: membrane suspension used
# Sequence (P25103 whole entry): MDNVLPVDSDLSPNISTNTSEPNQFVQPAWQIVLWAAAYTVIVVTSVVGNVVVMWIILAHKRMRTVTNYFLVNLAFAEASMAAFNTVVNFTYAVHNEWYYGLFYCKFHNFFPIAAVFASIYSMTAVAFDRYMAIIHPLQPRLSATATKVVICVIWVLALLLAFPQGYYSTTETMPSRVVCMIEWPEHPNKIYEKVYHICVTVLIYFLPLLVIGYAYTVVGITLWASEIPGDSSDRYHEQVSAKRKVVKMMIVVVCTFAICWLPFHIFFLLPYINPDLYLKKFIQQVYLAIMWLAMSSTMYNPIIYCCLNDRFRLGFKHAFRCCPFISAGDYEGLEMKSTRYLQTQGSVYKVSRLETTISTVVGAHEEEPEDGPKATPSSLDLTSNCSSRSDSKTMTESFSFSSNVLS
# test_method_notes: [3H]substance P binding at human NK1 receptors in CHO cells
# condition_info: affinity to the NK-1 receptor; [3H]substance P 0.6 nM displacement, CHO cell membranes, 60 min at room temperature
pKi: −log10 of the molar value.
// pKi lookup, one value per entry
assay_readout: pKi

> print(dat)
                                   molecule                    subject.of.test  assay.readout  observed.result
1  O=C1NCC(c2ccc(Cl)cc2)C2(CCN(C(=O)c3cc(C(F)(F)F)cc(C(F)(F)F)c3)CC2)O1 (racemic)  human NK1 receptor (Homo sapiens)            pKi             7.96
2  Cc1ccc(C2CNC(=O)OC23CCN(C(=O)c2cc(C(F)(F)F)cc(C(F)(F)F)c2)CC3)cc1C (racemic)  human NK1 receptor (Homo sapiens)            pKi             7.90
3  O=C1OC2(CCN(C(=O)c3cc(C(F)(F)F)cc(C(F)(F)F)c3)CC2)C(c2ccccc2)CN1CCCN1CCCC1 (racemic)  human NK1 receptor (Homo sapiens)            pKi             8.47
4  O=C1OC2(CCN(C(=O)c3cc(C(F)(F)F)cc(C(F)(F)F)c3)CC2)C(c2ccc(F)c(F)c2)CN1CC(F)F (racemic)  human NK1 receptor (Homo sapiens)            pKi             7.94
